- Tested on: U2OS
- assay overview: Multiplex assay against U2OS
- Assay type: toxicity, cell-based
- condition set: human, 12 h, 1 µM, compound concentration 1 uM, replicate 1
measurement kind: Population Apoptotic (%)
Numbers only, in %.

For orientation, consider the following solved cases.
* Cl.NC[C@@H]1O[C@H](C23CC4CC(CC(C4)C2)C3)Cc2c1ccc(O)c2O | 60
* N#Cc1cccc(C(=O)Nc2cc(-c3ccccc3)nn2-c2ccccc2)c1 | 33

Continue with the next compound.
So for Cc1c(P(=S)(c2ccccc2)c2ccccc2)n2ccccc2[n+]1C/C=C/c1ccccc1.[Br-] , the logged Population Apoptotic (%) turned out to be 54
